# System: PIP5K2B
# protocol.conditions: concentration: 1 μM, replicates: in singlicate; n = 1
Please respond with reported %Inh for every item in the list.
# output: bare number, implied unit %

Ask | Could you share which %Inh value was measured for "COc1cc2ncn(-c3cc(OCc4ccncc4)c(C(N)=O)s3)c2cc1OC" ?
Reply | 22

Ask | Which %Inh is reported for this molecule? "COC(=O)c1c(-c2ccccc2)c2cc(Br)ccc2c(=O)n1Cc1ccc(NC(=O)CCC(=O)O)cc1"
Reply | 35

Ask | Form field: reported %Inh of "Nc1nc(N)c2nc(-c3ccccc3)[nH]c2n1"
Reply | 8

Ask | What value of measured %Inh is listed for "O=c1cc(N2CCOCC2)nc2n(Cc3ccc(F)c(Cl)c3)ccn12" ?
Reply | 0

Ask | State the recorded %Inh for this entry: "Cc1nc(N(C)[C@H]2CN(C(=O)CC#N)CC[C@H]2C)c2cc[nH]c2n1"
Reply | 0

----------
Exercise: for every item that follows, state its recorded %Inh.
# Test system: MERTK
# protocol.conditions: concentration: 1 μM, replicates: in singlicate; n = 1
Unit % implied. Number only.

Ask | Record request: %Inh value, item "CCc1ccc(-c2ccc3c(c2)-c2nn(C)cc2S(=O)(=O)N3C)cc1"
Reply | 0

Ask | Data request, read-out %Inh, for Cl.NS(=O)(=O)c1cccc(Nc2cc(-c3ccc(F)cc3)n[nH]2)c1 [GW824645]
Reply | 0

Ask | State the recorded %Inh for this entry: COc1cc2ncn(-c3cc(OCc4ccncc4Br)c(C(N)=O)s3)c2cc1OC [GW854278]
Reply | 11

Ask | Give its %Inh value. Item: COc1cc2nccc(Nc3cccc(Oc4ccccc4)c3)c2cc1OC.Cl [GW284543]
Reply | 0

----------
# Tested on: TNNI3K
# protocol.conditions: concentration: 1 μM, replicates: in singlicate; n = 1
What %Inh was measured for each of the following?
Answer with a number only, understood to be in %.

Ask | Given COc1ccc(Nc2nccc(N3CCC(NS(=O)(=O)c4ccc(NC(C)=O)cc4)C3)n2)cc1 (centres unmarked) [GSK1379729] , state its recorded %Inh.
Reply | 100

Ask | Using the record for COc1cc2ncn(-c3cc(OCc4ccncc4)c(C(N)=O)s3)c2cc1OC [GSK336313] , report its %Inh.
Reply | 0

Ask | Given the entry O=C(Nc1n[nH]c2nc(-c3ccccc3)c(Cl)cc12)C1CC1 [SB-734909] , report its measured %Inh.
Reply | 0

Ask | Given the entry Cc1nn2c(=O)cc(N3CCOCC3)nc2n1Cc1cccc(Cl)c1Cl [GSK2342769] , report its measured %Inh.
Reply | 5

Ask | GET /values?readout=%Inh&item= "CCc1nc(-c2cccc(C)c2)c(-c2ccncc2)s1"
Reply | 0

Ask | Which %Inh reading was recorded for the molecule "COc1cc(OC)cc(-c2cc3cnc(N)nc3nc2NC(=O)NC(C)(C)C)c1" ?
Reply | 0

Ask | What does the record list as %Inh for Nc1n[nH]c2nnc(-c3ccccc3)c(-c3ccccc3)c12 [GW554060] ?
Reply | 0

Ask | Would you mind telling me what %Inh value was observed for CCn1c(-c2ccoc2)nc2cnccc21 [SB-733887] ?
Reply | 11

Ask | Reported %Inh for "CCC(=O)c1c(-c2ccccc2)c2cc(Cl)ccc2c(=O)n1Cc1ccc(C(=O)O)cc1" : what is it?
Reply | 0

Ask | What value of measured %Inh is listed for "CCC(=O)c1c(-c2ccccc2)c2cc(Cl)ccc2c(=O)n1Cc1cc(S(C)(=O)=O)n(CC(F)F)n1" ?
Reply | 0

Ask | Sample Cc1cccc(-c2cc(-c3c[nH]nc3-c3ccccn3)ccn2)c1 [GW679395] — what was its %Inh?
Reply | 9

Ask | Suppose we examine the molecule CCn1c(-c2nonc2N)nc2ccccc21 [SB-693162/GW549034] ; what %Inh value has been reported?
Reply | 0

Ask | Report %Inh for CN1C(=O)C(Nc2ccccc2)=C(c2ccccc2)C1=O [SB-300079] please.
Reply | 0

Ask | Recorded %Inh of CN(C)c1cc(-c2ccc3c(N)n[nH]c3c2)nc(N)n1 [GSK2219329] , please.
Reply | 0

Ask | // query %Inh value for entry "COC(=O)c1c(-c2ccccc2)c2cc(Br)ccc2c(=O)n1Cc1ccc(S(C)(=O)=O)cc1"
Reply | 0

Ask | Given "COc1ccc(-c2cc3c(C)nc(N)nc3n([C@H]3CC[C@H](O)CC3)c2=O)cn1" , state its recorded %Inh.
Reply | 0

Ask | Return reported %Inh; argument: Nc1ncnc2c1ncn2-c1ccc(Cl)cc1 [AH2635]
Reply | 0

Ask | I am curious: what %Inh value has been reported for COc1cccc(C2=C(Nc3cccc(C(=O)O)c3)C(=O)NC2=O)c1 [SB-390770] ?
Reply | 8

Ask | May I ask what %Inh has been recorded for CCS(=O)(=O)c1ccc(OC)c(Nc2ncc(-c3ccc(F)cc3)o2)c1.Cl [GW591947] ?
Reply | 8

Ask | Name the recorded %Inh for "Cn1c(=O)c(F)c(Nc2ccc(I)cc2F)c2c(=O)n(OC[C@H](O)CO)cnc21" .
Reply | 4

Ask | Looking for the measured %Inh of CCS(=O)c1ccc(-c2coc3ccc(-c4nnc(C)o4)cc23)cc1 (centres unmarked) , can you help?
Reply | 0

Ask | Give the measured %Inh of Cl.c1ccc(Cn2cnc3cc(Nc4ncnc5ccccc45)ccc32)cc1 [GW272142] .
Reply | 0

Ask | If you can, please state the reported %Inh value of CCCC(=O)Nc1n[nH]c2ncc(-c3cccc4ccccc34)cc12 [SB-642057] .
Reply | 5

Ask | Query: %Inh; subject: COc1cc(Nc2nccc(N3CCC(NC(=O)C4COc5ccccc5O4)C3)n2)cc(OC)c1OC (centres unmarked) [GSK1379761]
Reply | 0

Ask | Endpoint output: %Inh of COc1cc2nccc(Nc3cccc(Oc4ccccc4)c3)c2cc1OC.Cl [GW284543] . Value?
Reply | 10

Ask | Please look up its %Inh: FC(F)(F)c1ccc(-c2ncn(CCCN3CCOCC3)c2-c2ccncc2)cc1 [SB-217780]
Reply | 0

----------
For each of the molecules below, state its Kd.

Ask | Kd of "COc1cc2ncn(-c3cc(OCc4ccncc4Br)c(C(N)=O)s3)c2cc1OC" on PLK3?
Reply | 0.0094 µM

Ask | Form: Entry = "COc1cc2ncn(-c3cc(OCCCc4ccccc4)c(C(N)=O)s3)c2cc1OC" | System = PLK3 | Kd = ____;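 note: kd values determined as follow-up on hits from a single-replicate KINOMEscan panel screen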
Reply | 0.12 µM

----------
# Test system: MAP4K4
# protocol.conditions: concentration: 1 μM, replicates: in singlicate; n = 1
observable: %Inh (%)
API: value field is a number in %; no unit string.

Ask | Would you mind telling me what %Inh value was observed for "CCS(=O)(=O)c1ccc(OC)c(Nc2ncc(-c3ccc(F)cc3)o2)c1.Cl" ?
Reply | 5

Ask | Would you mind telling me what %Inh value was observed for "Cl.NS(=O)(=O)c1cccc(Nc2cc(-c3ccc(F)cc3)n[nH]2)c1" ?
Reply | 0

Ask | Look at this compound and give its reported %Inh. "CCC(=O)c1c(-c2ccccc2)c2cc(Cl)ccc2c(=O)n1Cc1cc(S(C)(=O)=O)n(CC(F)F)n1"
Reply | 0

Ask | %Inh lookup needed for "CCC(=O)c1c(-c2ccccc2)c2cc(Cl)ccc2c(=O)n1Cc1cc(S(C)(=O)=O)n(CC(N)=O)n1" , thanks.
Reply | 0

Ask | What value of %Inh has been reported for the following compound? "Nc1n[nH]c2ncc(-c3ccccc3)cc12"
Reply | 0

Ask | %Inh for "CCC(=O)c1c(-c2ccccc2)c2cc(Cl)ccc2c(=O)n1Cc1cc(C(=O)NC2CC2)n(C)n1" ?
Reply | 0

Ask | Any idea what its %Inh is? The compound is "COc1ccc(-n2cnc3c(N)ncnc32)cc1"
Reply | 17

Ask | Which %Inh reading was recorded for the compound "O=C(Nc1n[nH]c2nc(-c3ccccc3)c(Cl)cc12)C1CC1" ?
Reply | 1

Ask | Which %Inh reading was recorded for the compound "Nc1n[nH]c2nnc(-c3ccccc3)c(-c3ccccc3)c12" ?
Reply | 0

Ask | Suppose we examine the compound "OCCCNc1nccc(-c2c(-c3cccc(C(F)(F)F)c3)nn3cc(C(F)(F)F)ccc23)n1" ; what %Inh value has been reported?
Reply | 6

Ask | Can you look up the measured %Inh of "COc1cc2ncn(-c3cc(OCc4ccncc4Br)c(C(N)=O)s3)c2cc1OC" for me?
Reply | 0

Ask | Could you share which %Inh value was measured for "C[C@@H]1CC[C@H](C(=O)NC2CCCCC2)CN1c1cc(-c2ccc3c(N)n[nH]c3c2)nc(N)n1" ?
Reply | 7

Ask | For the compound shown here, "CN1C(=O)C(Nc2ccccc2)=C(c2ccccc2)C1=O" , give the reported %Inh.
Reply | 0

Ask | Fill in the blank: the reported %Inh of "COc1cc(Nc2ccnc3ccc(C(F)(F)F)cc23)cc(OC)c1OC" is ____.
Reply | 15

Ask | // query %Inh value for entry "COc1cc2ncn(-c3cc(OCc4ccc(S(C)(=O)=O)cc4)c(C(N)=O)s3)c2cc1OC"
Reply | 0

Ask | Which %Inh is reported for this compound? "Nc1nccc2scc(-c3ccc4c(c3)CCN4C(=O)Cc3ccccc3)c12"
Reply | 24

Ask | Which %Inh is reported for this compound? "Nc1ncnc2c1ncn2-c1ccc(Cl)cc1"
Reply | 12

Ask | Which measured %Inh value corresponds to "FC(F)(F)c1ccc(-c2ncn(CCCN3CCOCC3)c2-c2ccncc2)cc1" ?
Reply | 0
